Target: TrkC (Homo sapiens)
Sequence (Q16288 32-839): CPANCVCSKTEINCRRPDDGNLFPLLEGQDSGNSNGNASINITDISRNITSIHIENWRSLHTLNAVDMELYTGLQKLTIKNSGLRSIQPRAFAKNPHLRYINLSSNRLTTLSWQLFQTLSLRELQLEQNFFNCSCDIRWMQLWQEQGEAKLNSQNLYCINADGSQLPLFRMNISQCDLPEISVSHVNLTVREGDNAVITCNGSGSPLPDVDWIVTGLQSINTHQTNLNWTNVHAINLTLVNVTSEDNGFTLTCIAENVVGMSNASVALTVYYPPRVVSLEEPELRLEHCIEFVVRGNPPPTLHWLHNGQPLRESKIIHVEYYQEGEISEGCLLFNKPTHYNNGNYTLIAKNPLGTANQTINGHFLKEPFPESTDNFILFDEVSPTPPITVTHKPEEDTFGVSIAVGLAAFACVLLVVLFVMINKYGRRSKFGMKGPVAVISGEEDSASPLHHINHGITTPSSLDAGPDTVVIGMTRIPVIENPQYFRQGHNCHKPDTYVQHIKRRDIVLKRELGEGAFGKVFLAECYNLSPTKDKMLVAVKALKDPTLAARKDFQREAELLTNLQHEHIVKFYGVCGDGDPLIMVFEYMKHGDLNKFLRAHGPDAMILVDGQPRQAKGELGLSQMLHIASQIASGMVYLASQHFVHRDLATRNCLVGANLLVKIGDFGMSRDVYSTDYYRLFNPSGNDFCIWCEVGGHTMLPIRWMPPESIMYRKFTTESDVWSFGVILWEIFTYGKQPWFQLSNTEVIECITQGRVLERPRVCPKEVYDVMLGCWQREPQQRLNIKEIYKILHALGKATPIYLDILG
Assay: HTRF KinEASE kinase assay, recombinant Human TRK enzyme, TrkC (NTRK3)
Conditions: NTRK3 10 nM, read-out: TrkC Enz
Ranges used to classify IC50: c1: < 2 nM; c2: ≥ 2 nM and < 4 nM; c3: ≥ 4 nM

Data request: Field: class (IC50) — entry: "CSc1cc(F)cc([C@H]2C[C@H](F)CN2c2ccc3ncc(C(=O)N[C@H]4CCN(Cc5cccc(O)c5)C4)n3n2)c1"
Data returned: c3

Data request: Field: class (IC50) — entry: "CSc1cc(F)cc([C@H]2C[C@H](F)CN2c2ccc3ncc(C(=O)N[C@H]4CCN(C(=O)c5cccc(O)c5)C4)n3n2)c1"
Data returned: c1
